Data origin, for the record: ChEMBL document CHEMBL3853337

Dear all, this message contains pKi results, target or system Coagulation factor X (Homo sapiens, UniProt P00742).
Numbers only, as −log10 of the molar value.

1) Cc1cc2ccc1[C@@H](C)COC(=O)Nc1ccc(C3(C(=O)O)CCCCC3)c(c1)CN(C)C(=O)[C@@H]2Nc1ccc2c(N)ncc(F)c2c1 6.05

Kindly consider the entry below.
The value of pKi measured for the molecule Cc1cc2ccc1[C@@H](C)COC(=O)Nc1ccc(C3(C(=O)O)CC3)c(c1)CN(C)C(=O)[C@@H]2Nc1ccc2c(N)ncc(F)c2c1 turned out to be 5.18
